# experiment_description: Cell viability (ATP, CellTiter-Glo) in parallel with metabolomics experiments
# measurement_setup: human, HepG2 cells, Percentage of viability (ATP) compared to the vehicle control, C4, C4, 48 h, n = 6
Catalogue of compounds with associated viability at 48 h
Expressed in %, but write only the number.

compound | value_measured
CC(=O)N1CCN(c2ccc(OCC3COC(Cn4ccnc4)(c4ccc(Cl)cc4Cl)O3)cc2)CC1 (stereo not shown) | 64.7
O=c1cc(-c2ccccc2)oc2ccc3ccccc3c12 | 34.5
O=C(O)c1cc(Oc2ccc(C(F)(F)F)cc2Cl)ccc1[N+](=O)[O-] | 58.4

Now for the compound whose viability at 48 h we want.
Challenge: Need viability at 48 h of "Cc1cccc(Nc2cc(Cl)nc(SCC(=O)O)n2)c1C" , thanks.
Response given: 46.4
